- experimental.system: JAK2 tyrosine kinase (Homo sapiens)
- Sequence (O60674 whole entry): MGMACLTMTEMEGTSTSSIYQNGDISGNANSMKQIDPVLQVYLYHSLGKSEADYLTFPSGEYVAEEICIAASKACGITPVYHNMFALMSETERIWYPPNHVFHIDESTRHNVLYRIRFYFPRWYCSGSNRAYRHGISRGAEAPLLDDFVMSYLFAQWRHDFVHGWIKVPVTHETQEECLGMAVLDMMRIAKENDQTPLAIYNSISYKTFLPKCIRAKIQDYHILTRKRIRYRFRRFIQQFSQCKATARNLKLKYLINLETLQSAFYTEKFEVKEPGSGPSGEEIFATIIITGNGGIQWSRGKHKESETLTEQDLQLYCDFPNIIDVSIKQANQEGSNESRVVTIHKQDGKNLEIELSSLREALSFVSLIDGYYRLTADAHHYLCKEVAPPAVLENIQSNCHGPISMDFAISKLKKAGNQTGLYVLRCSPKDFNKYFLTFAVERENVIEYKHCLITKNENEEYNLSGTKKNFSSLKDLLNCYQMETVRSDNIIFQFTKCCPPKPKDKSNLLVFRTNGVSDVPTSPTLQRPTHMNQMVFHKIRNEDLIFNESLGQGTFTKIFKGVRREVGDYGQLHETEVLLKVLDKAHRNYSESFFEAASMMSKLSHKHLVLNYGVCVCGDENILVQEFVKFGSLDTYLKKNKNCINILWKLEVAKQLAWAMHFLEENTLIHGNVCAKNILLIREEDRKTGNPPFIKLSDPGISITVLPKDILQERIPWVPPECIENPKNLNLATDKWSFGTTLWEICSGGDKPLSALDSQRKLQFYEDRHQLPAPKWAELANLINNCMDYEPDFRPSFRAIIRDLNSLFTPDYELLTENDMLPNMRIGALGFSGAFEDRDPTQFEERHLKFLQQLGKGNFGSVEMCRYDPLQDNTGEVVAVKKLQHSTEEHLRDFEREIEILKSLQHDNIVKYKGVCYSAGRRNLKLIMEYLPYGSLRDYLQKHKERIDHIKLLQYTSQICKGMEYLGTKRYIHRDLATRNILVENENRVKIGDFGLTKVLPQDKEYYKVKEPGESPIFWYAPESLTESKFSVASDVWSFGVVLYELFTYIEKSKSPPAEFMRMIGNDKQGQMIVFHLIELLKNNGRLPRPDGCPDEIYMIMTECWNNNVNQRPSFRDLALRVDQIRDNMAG
pIC50: −log10 of the molar value. Counter-ions that a name gives are not always drawn.
quantity.measured: pIC50

Here are 10 compounds together with their reported answers.
compound | experimental.system | reported.result
COc1c(Nc2ncc(C#N)s2)nc(N2CCC[C@H]2c2ccc(C)cc2)nc1-c1cnc(C)nc1 [Example 60] | JAK2 tyrosine kinase (Homo sapiens) | 6.13
CCc1c(C)nc(N2CCC[C@H]2c2ccc(C)cc2)nc1Nc1ncc(C#N)s1 [Example 70, maleate] | JAK2 tyrosine kinase (Homo sapiens) | < 6.00
N#Cc1cnc(Nc2cncc(N3CCCC3c3ccc(Cl)cc3)n2)s1 (centres unmarked) [Example 48] | JAK2 tyrosine kinase (Homo sapiens) | 7.51
COc1c(Nc2ncc(C#N)s2)nc(N2CCCC2c2ccc(C)cc2)nc1-c1cccnc1F (centres unmarked) [Example 49] | JAK2 tyrosine kinase (Homo sapiens) | < 6.00
COc1c(Nc2ncc(C#N)s2)nc(N2CCCC2c2ccc(C)cc2)nc1-c1ccc(C(N)=O)cc1 (centres unmarked) [Example 4] | JAK2 tyrosine kinase (Homo sapiens) | < 6.00
COCCn1cc(-c2nc(N3CCC[C@H]3c3ccc(C)cc3)nc(Nc3ncc(C#N)s3)c2OC)cn1 [Example 58] | JAK2 tyrosine kinase (Homo sapiens) | 6.62
Cc1ccc(C2CCCN2c2nc3c(c(Nc4ncc(C#N)s4)n2)CN(S(C)(=O)=O)CC3)cc1 (centres unmarked) [Example 72] | JAK2 tyrosine kinase (Homo sapiens) | < 6.00
COc1cc(C)ccc1C1CCCN1c1cnc(C2CC2)c(Nc2ncc(C#N)s2)n1 (centres unmarked) [Example 23] | JAK2 tyrosine kinase (Homo sapiens) | < 6.00
Cc1ccc([C@@H]2CCCN2c2cnc(C)c(Nc3ncc(C#N)s3)n2)cc1 [Example 20, hydrochloride] | JAK2 tyrosine kinase (Homo sapiens) | 6.60
COc1c(Nc2ncc(C#N)s2)nc(N2CCCC2c2ccc(C)cc2)nc1-c1ccc(F)nc1 (centres unmarked) [Example 50] | JAK2 tyrosine kinase (Homo sapiens) | ≤ 6.00

The compound identified as Cc1ccc([C@@H]2CCCN2c2cnc(C3CC3)c(Nc3ncc(C)s3)n2)cc1 [Example 34] registered its pIC50 at < 6.00

Reported pIC50 of N#Cc1cnc(Nc2nc(N3CCCC3c3ccc(F)cc3)cnc2-c2ccncc2)s1 (centres unmarked) [Example 26] : < 6.00

Input N#Cc1cnc(Nc2cncc(N3CCCC3c3ccc(C(F)(F)F)cc3)n2)s1 (centres unmarked) [Example 39] . Output pIC50: < 6.00

Form field pIC50, entry CCc1c(COC)nc(N2CCC[C@H]2c2ccc(C)cc2)nc1Nc1ncc(C#N)s1 [Example 57] : < 6.00

So for COc1cnc(N2CCCC2c2ccc(C)cc2)nc1Nc1ncc(C#N)s1 (centres unmarked) [Example 19] , the logged pIC50 turned out to be 6.66

Cc1ccc(C2CCCN2c2nc(Nc3ncc(C#N)s3)cc(C(=O)N[C@H](C)CO)n2)cc1 (some centres unmarked) [Example 12] yielded pIC50 of 6.27

Noted for Cc1ccc(C2CCCN2c2cc(C(F)(F)F)cc(Nc3ncc(C#N)s3)n2)cc1 (centres unmarked) [Example 27] : its pIC50 reads < 6.00
